Data origin: ChEMBL document CHEMBL4257502

- Tested on: MCF7
- protocol_details: Cytotoxicity against human MCF7 cells after 48 hrs by MTS assay
- Format: functional, cell-based
- experimental_conditions: MCF7, 48 h
readout_label: IC50 (nM)

compound=O=C1C(CSC(=S)N2CCCCC2)=C(CSC(=S)N2CCCCC2)C(=O)c2ccccc21 measurement_target=MCF7 readout_label=IC50 unit_abbreviation=nM value_observed=61
